- Experimental system: hENPP2 (Homo sapiens, UniProt Q13822)
pIC50: −log10 of the molar value.
Experimental endpoint: pIC50

COc1cc(C)cc(Nc2ncc3c(n2)CN(C2CN(C(=O)c4ccc5[nH]nnc5c4)C2)C3)c1; 7.00 to 11.00

Prompt line: State pIC50 on hENPP2 (Homo sapiens, UniProt Q13822). Entry: `COc1cc(Nc2ncc3c(n2)CN(C2CN(C(=O)c4ccc5[nH]c(=O)oc5c4)C2)C3)cc(OC)c1`
Response line: 7.00 to 11.00

Prompt line: GET pIC50 | system: hENPP2 (Homo sapiens, UniProt Q13822) | item: `Cc1cc(C)cc(Nc2ncc3c(n2)CN(C2CC4(C2)CN(C(=O)c2ccc5[nH]nnc5c2)C4)C3)c1`
Response line: 6.00 to 6.30

Prompt line: Report pIC50 under test system hENPP2 (Homo sapiens, UniProt Q13822) for Cc1cc(C)cc(Nc2ncc3c(n2)CCN([C@H]2CN(C(=O)c4ccc5[nH]nnc5c4)C[C@H]2F)C3)c1 (racemic) .
Response line: 7.00 to 11.00

Prompt line: Enter measured pIC50, system hENPP2 (Homo sapiens, UniProt Q13822), for the compound shown: `Cc1cc(Nc2ncc3c(n2)CN([C@H]2CCN(C(=O)c4ccnc(NS(C)(=O)=O)c4)[C@H](C)C2)C3)ccc1C(F)(F)F`
Response line: 7.00 to 11.00

Prompt line: Tell me its pIC50 on hENPP2 (Homo sapiens, UniProt Q13822): `O=C(c1ccc2[nH]c(=O)oc2c1)N1CC(N2Cc3cnc(Nc4cc(C(F)(F)F)cc(C(F)(F)F)c4)nc3C2)C1`
Response line: 7.00 to 11.00

Each recorded value in this set is attributed to patent EP3782997A1.
